system: GCN2(Kin.Dom.2,S808G); construct: gene EIF2AK4; conditions: concentration: 1 μM, replicates: in singlicate; n = 1;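 also: KINOMEscan kinase panel screen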
Threshold 1%. %Inh below it: condition met. %Inh at it or above: condition not met.

1. CCc1ccnc(/C=C/c2n[nH]c3cc(Sc4ccccc4C(=O)NC)ccc23)c1	condition not met

**Q:** Is %Inh strictly under 1% for the entry O=c1cc(N2CCOCC2)nc2n(Cc3cccc(Cl)c3Cl)c(C3CC3)nn12 ?
**A:** condition met

**Q:** Is %Inh strictly under 1% for the entry [2H]C([2H])(c1cccc(C(F)(F)F)c1C)n1ccn2c(=O)nc(N3CCOCC3)cc12 ?
**A:** condition met

**Q:** Is %Inh strictly under 1% for the entry CN1c2ccc(CNc3ccc(F)cc3)cc2-c2c(cnn2C)S1(=O)=O ?
**A:** condition not met

**Q:** Is %Inh strictly under 1% for the entry COc1cc2ncn(-c3cc(OCc4sccc4Cl)c(C(N)=O)s3)c2cc1OC ?
**A:** condition not met

FYI, the data here is from paper PMC5540273.
